# Tested On: human melanocortin 4 receptor (human, UniProt P32245 1-332)
# Sequence (P32245 whole entry): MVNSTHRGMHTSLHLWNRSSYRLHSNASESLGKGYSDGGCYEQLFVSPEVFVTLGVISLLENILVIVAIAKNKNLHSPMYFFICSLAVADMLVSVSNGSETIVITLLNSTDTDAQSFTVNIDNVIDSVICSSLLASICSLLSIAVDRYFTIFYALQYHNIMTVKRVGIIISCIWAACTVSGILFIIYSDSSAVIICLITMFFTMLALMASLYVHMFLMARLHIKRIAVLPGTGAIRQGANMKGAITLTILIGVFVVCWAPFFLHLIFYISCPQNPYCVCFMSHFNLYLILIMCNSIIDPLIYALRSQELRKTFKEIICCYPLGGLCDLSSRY
# Assay Summary: cell-based or functional assay
Positions of bridges follow the written chain, without caps; N, C: chain ends. Non-standard residues stand in square brackets, D forms with d. Cit = NC(=O)NCCC[C@H](N)C(=O)O; Thz = O=C(O)[C@@H]1CSCN1; Aib = CC(C)(N)C(=O)O
Mark each entry label 1 if its MC4R cAMP EC50 sits below 0.5 nM, and label 0 for all others.

Solved cases (5 shown):
{"columns": ["Binder", "Assigned Class"],
 "data": [
  ["cyclo(C[Thz]H[dF]HWCADEAW) (disulfide 1-7; SMILES C[C@@H]1NC(=O)[C@H](CCC(=O)O)NC(=O)[C@H](CC(=O)O)NC(=O)[C@H](C)NC(=O)[C@@H]2CSSC[C@H](NC(=O)[C@H](Cc3c[nH]c4ccccc34)NC1=O)C(=O)N1CSC[C@H]1C(=O)N[C@@H](Cc1c[nH]cn1)C(=O)N[C@H](Cc1ccccc1)C(=O)N[C@@H](Cc1c[nH]cn1)C(=O)N[C@@H](Cc1c[nH]c3ccccc13)C(=O)N2, also called c[c[Cys-THAZ-His-D-Phe-His-Trp-Cys]-Ala-Asp-Glu-Ala-Trp]) [Chem. 107]", "label 0"],
  ["cyclo(C[Thz]H[dF]HWC[Thz]H[dF]HW) (disulfide 1-7; SMILES O=C1N[C@H]2CSSC[C@H](NC(=O)[C@H](Cc3c[nH]c4ccccc34)NC(=O)[C@H](Cc3c[nH]cn3)NC(=O)[C@@H](Cc3ccccc3)NC(=O)[C@H](Cc3c[nH]cn3)NC(=O)[C@@H]3CSCN3C2=O)C(=O)N2CSC[C@H]2C(=O)N[C@@H](Cc2c[nH]cn2)C(=O)N[C@H](Cc2ccccc2)C(=O)N[C@@H](Cc2c[nH]cn2)C(=O)N[C@H]1Cc1c[nH]c2ccccc12, also called c[c[Cys-THAZ-His-D-Phe-His-Trp-Cys]-THAZ-His-D-Phe-His-Trp]) [Chem. 91]", "label 0"],
  ["cyclo(C[Thz]H[dF]HWCAKKAW) (disulfide 1-7; SMILES C[C@@H]1NC(=O)[C@H](CCCCN)NC(=O)[C@H](CCCCN)NC(=O)[C@H](C)NC(=O)[C@@H]2CSSC[C@H](NC(=O)[C@H](Cc3c[nH]c4ccccc34)NC1=O)C(=O)N1CSC[C@H]1C(=O)N[C@@H](Cc1c[nH]cn1)C(=O)N[C@H](Cc1ccccc1)C(=O)N[C@@H](Cc1c[nH]cn1)C(=O)N[C@@H](Cc1c[nH]c3ccccc13)C(=O)N2, also called c[c[Cys-THAZ-His-D-Phe-His-Trp-Cys]-Ala-Lys-Lys-Ala-Trp]) [Chem. 110]", "label 1"],
  ["cyclo(C[Aib]H[dF]KWC[Aib]H[dF]KW) (disulfide 1-7; SMILES CC1(C)NC(=O)[C@@H]2CSSC[C@H](NC(=O)[C@H](Cc3c[nH]c4ccccc34)NC(=O)[C@H](CCCCN)NC(=O)[C@@H](Cc3ccccc3)NC(=O)[C@H](Cc3c[nH]cn3)NC1=O)C(=O)NC(C)(C)C(=O)N[C@@H](Cc1c[nH]cn1)C(=O)N[C@H](Cc1ccccc1)C(=O)N[C@@H](CCCCN)C(=O)N[C@@H](Cc1c[nH]c3ccccc13)C(=O)N2, also called c[c[Cys-Aib-His-D-Phe-Lys-Trp-Cys]-Aib-His-D-Phe-Lys-Trp]) [Chem. 40]", "label 1"],
  ["cyclo(CAH[dF][Cit]WCAEEEW) (disulfide 1-7; SMILES C[C@@H]1NC(=O)[C@@H]2CSSC[C@H](NC(=O)[C@H](Cc3c[nH]c4ccccc34)NC(=O)[C@H](CCCNC(N)=O)NC(=O)[C@@H](Cc3ccccc3)NC(=O)[C@H](Cc3c[nH]cn3)NC1=O)C(=O)N[C@@H](C)C(=O)N[C@@H](CCC(=O)O)C(=O)N[C@@H](CCC(=O)O)C(=O)N[C@@H](CCC(=O)O)C(=O)N[C@@H](Cc1c[nH]c3ccccc13)C(=O)N2, also called c[c[Cys-Ala-His-D-Phe-Cit-Trp-Cys]-Ala-Glu-Glu-Glu-Trp]) [Chem. 45]", "label 0"]
]}

We now examine a further binder.
Query: Bench note: check whether cyclo(CPH[dF]HWCAKKKW) (disulfide 1-7, also called c[c[Cys-Pro-His-D-Phe-His-Trp-Cys]-Ala-Lys-Lys-Lys-Trp]) [Chem. 62] shows MC4R cAMP EC50 below 0.5 nM
Response: label 1
